Where do the numbers come from? From patent US20240279202A1.

Target: ITK (Homo sapiens, UniProt Q08881)
Experiment: ITK degradation HiBiT assay
Assay type: cell-based
Set-up: expressed in transfected cells; host or cells: Molt4 (ATCC CRL-1552), monoclonal clone 1C10, engineered to carry the HiBiT tag
Details: MOLT-4, C-terminal HiBiT-tagged Molt4 cells, 4 hrs
QUANTITY KIND: Dmax (%)

Examples with their reported Dmax follow.
C[C@@H]1CN(C(=O)c2ccc3cc(-c4n[nH]c5c4C[C@@H]4C(F)(F)[C@]4(C)C5)[nH]c3c2)CCN1CC1CCN(c2ccc(C3CCC(=O)NC3=O)c(F)c2)CC1 (some centres unmarked) [Compound 160] :: 83
C[C@@]12Cc3[nH]nc(C(=O)Nc4cnn(C5CCC(C(=O)N6CCN(c7ccc(C8CCC(=O)NC8=O)cc7)CC6)CC5)c4)c3C[C@@H]1C2(F)F (mixture of isomers) [Compound 179] :: 88
CC1(C)CCc2c(-c3cc4cc(F)c(C(=O)N5CCN(CC6CCN(c7ccc(C8CCC(=O)NC8=O)nc7)CC6)CC5)cc4[nH]3)n[nH]c2C1 (centres unmarked) [Compound 216] :: 87
C[C@@]12Cc3[nH]nc(C(=O)Nc4cnn(C5CCN(C(=O)C6CCC(Oc7ccc(C8CCC(=O)NC8=O)cn7)CC6)CC5)c4)c3C[C@@H]1C2(F)F (mixture of isomers) [Compound 168] :: 88

A: C[C@@]12Cc3[nH]nc(C(=O)Nc4cnn(CC5CN(C(=O)C6CN(C7CCN(c8ccc9c(c8)C(=O)N(C8CCC(=O)NC8=O)C9=O)CC7)C6)C5)c4)c3C[C@@H]1C2(F)F (some centres unmarked) [Compound 42]
B: CC1(C)CCc2c(-c3cc4ccc(C(=O)N5CCC(CN6CCN(c7cc(C8CCC(=O)NC8=O)ccn7)CC6)CC5)cc4[nH]3)n[nH]c2C1 (centres unmarked) [Compound 214]
Task: Name the one with the greater Dmax value, either A or B as given. Lab log: write the label of the selected item as the result.
Result: A
(A: 93%, B: 53%)

---

Target: ITK (Homo sapiens)
Sequence (Q08881 1-620): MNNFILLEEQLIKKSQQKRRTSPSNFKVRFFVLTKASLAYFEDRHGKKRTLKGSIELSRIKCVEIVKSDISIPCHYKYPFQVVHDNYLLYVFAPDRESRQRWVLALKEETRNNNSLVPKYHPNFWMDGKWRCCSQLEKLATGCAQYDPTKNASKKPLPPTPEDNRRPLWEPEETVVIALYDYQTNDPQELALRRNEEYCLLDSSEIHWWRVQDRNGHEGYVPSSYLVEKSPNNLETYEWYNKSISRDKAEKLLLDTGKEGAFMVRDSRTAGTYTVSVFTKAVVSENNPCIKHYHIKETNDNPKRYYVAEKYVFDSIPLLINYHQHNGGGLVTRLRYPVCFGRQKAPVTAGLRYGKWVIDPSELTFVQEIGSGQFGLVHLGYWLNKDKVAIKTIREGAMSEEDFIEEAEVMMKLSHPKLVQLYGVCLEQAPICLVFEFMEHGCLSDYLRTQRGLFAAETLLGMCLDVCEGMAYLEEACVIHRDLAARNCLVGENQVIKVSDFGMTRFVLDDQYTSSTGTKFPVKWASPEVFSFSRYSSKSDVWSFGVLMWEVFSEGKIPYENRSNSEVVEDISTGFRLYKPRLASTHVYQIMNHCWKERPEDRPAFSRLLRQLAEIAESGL
Experiment: ITK degradation HiBiT assay
Assay type: cell-based
Design: expressed in transfected cells; host or cells: Molt4 (ATCC CRL-1552), monoclonal clone 1C10, engineered to carry the HiBiT tag
Conditions: MOLT-4, C-terminal HiBiT-tagged Molt4 cells, 4 hrs
QUANTITY KIND: Dmax (%)

CN(c1ccc(C2CCC(=O)NC2=O)cn1)C1CCN(CC2CCN(C(=O)c3ccc4cc(-c5n[nH]c6c5CCC(C)(C)C6)[nH]c4c3)CC2)CC1 (stereo not drawn) [Compound 62] :: 72
C[C@@H]1CN(C(=O)c2ccc3cc(-c4n[nH]c5c4CCC(C)(C)C5)[nH]c3c2)CCN1CC1CCN(c2ccc(C3CCC(=O)NC3=O)cc2)CC1 (stereo partly drawn) [Compound 156] :: 84
C[C@@]12Cc3[nH]nc(C(=O)Nc4cnn(C5CCN(C(=O)C6CCN(c7ccc(C(=O)NC8CCC(=O)NC8=O)nc7)CC6)CC5)c4)c3C[C@@H]1C2(F)F (mixture of isomers) [Compound 180] :: 72
